- experimental_system: Histone deacetylase 3 (Homo sapiens, UniProt O15379)
- Sequence (O15379 whole entry): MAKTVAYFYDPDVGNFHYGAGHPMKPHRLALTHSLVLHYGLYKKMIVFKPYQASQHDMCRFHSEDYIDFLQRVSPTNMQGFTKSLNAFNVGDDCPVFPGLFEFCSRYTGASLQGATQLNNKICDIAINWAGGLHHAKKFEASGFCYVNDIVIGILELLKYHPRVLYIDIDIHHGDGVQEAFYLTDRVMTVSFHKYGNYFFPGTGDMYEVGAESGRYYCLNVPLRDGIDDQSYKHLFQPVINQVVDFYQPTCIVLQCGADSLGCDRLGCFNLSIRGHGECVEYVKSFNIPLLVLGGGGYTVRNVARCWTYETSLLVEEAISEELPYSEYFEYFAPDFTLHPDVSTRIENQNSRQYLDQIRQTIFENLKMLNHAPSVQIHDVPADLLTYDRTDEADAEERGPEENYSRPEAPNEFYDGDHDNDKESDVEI
- assay_overview: Inhibition of human recombinant HDAC3 using [Ac-Leu-Gly-Lys(Ac)-AMC substrate incubated for 15 to 30 mins
Ki strictly less than 0.5 µM = condition met. Otherwise condition not met.

Worked cases, answers included:
{"chem_smiles": "CC(C)[C@H]1NC(=O)C[C@@H](CCCCCC(=O)O)NC(=O)[C@@H](Cc2ccccc2)NC(=O)[C@@H](C)NC1=O", "assigned_label": "condition not met"}
{"chem_smiles": "CC(C)[C@H]1NC(=O)C[C@@H](CCCCCC(=O)O)NC(=O)[C@@H](Cc2ccc(O)cc2)NC(=O)[C@@H](C)NC1=O", "assigned_label": "condition met"}
{"chem_smiles": "CC(C)[C@H]1NC(=O)C[C@@H](C/C=C\\CCC(=O)O)NC(=O)[C@@H](Cc2ccccc2)NC(=O)[C@@H](C)NC1=O", "assigned_label": "condition not met"}
{"chem_smiles": "CC(C)[C@H]1NC(=O)C[C@@H](/C=C/CCCC(=O)O)NC(=O)[C@@H](Cc2ccccc2)NC(=O)[C@@H](C)NC1=O", "assigned_label": "condition not met"}
{"chem_smiles": "CC(C)[C@H]1NC(=O)C[C@@H](C/C=C\\CCC(=O)O)NC(=O)[C@@H](Cc2ccc(O)cc2)NC(=O)[C@@H](C)NC1=O", "assigned_label": "condition met"}

Now for another entry.
In: Please determine if `CC(C)[C@H]1NC(=O)C[C@@H](/C=C/CCCC(=O)O)NC(=O)[C@@H](Cc2c[nH]c3ccccc23)NC(=O)[C@@H](C)NC1=O` is below 0.5 µM in terms of Ki.
Out: condition not met
